B1: LINE1-full (parent)
chain: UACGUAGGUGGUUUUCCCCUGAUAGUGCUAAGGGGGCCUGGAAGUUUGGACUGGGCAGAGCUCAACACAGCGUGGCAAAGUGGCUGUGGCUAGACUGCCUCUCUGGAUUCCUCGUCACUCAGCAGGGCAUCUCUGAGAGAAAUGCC

Variants of: B1
Experiment: self-cleavage, relative activity (ratio to wild type); higher = more cleavage; in vitro, sequencing; the parent is a self-cleaving ribozyme
# binarize self-cleavage: threshold 0.8 inclusive, high side TRUE, low side FALSE

>>> label_value("UACGUAGGUGGUUUUCCCCUGAUAGUGCUAAGGGGGCCUGGAAGUUUGGACUGGGCAGAGCUCAACACAGCGUGGCAAAGUGGCUGUGGCUGGACUGCCUCUCUGGAUUCCUCGUCACUCAGCAGUGCAUCUCUGAGAGAAAUGCC [A92G G126U]")
"FALSE"
>>> label_value("UACGUAGGUGGUUUUCCCCUGAUAGUGCUAAGGGAGCCUGGAAGAUUGGACUGGGCAGAGCUCAACACAGCGUGGCAAAGUGGCUGUGGCUAGACUGCCUCUCUGGAUUCCUCGUCACUCAGCAGGGCAUCUCUGAGAGAAAUGCC [G35A U45A]")
"TRUE"
>>> label_value("UACGUAGGUGGUUUUCCCCUGAUAGUGCAAAGGGGGCCUGGAAGUUUGGACUGGGCAGAGCUCAACACAGCGUGGCAAAGUGGCUGCGGCUAGACUGCCUCUCUGGAUUCCUCGUCACUCAGCAGGGCAUCUCUGAGAGAAAUGCC [U29A U87C]")
"FALSE"
>>> label_value("UACGUAGGUGGUUUUCCCCUGAUAGUGCUAAGGGGGCCUGGAAGUUUGGACUGGGCAGAGCUCAACACAGCGUGGCAAAGUGGCUGUGGCUAGACUGCUUUUCUGGAUUCCUCGUCACUCAGCAGGGCAUCUCUGAGAGAAAUGCC [C99U C101U]")
"TRUE"
>>> label_value("UACGUAGGUGGUUUUCCCCUGAUAGUGCCAAAGGGGCCUGGAAGUUUGGACUGGGCAGAGCUCAACACAGCGUGGCAAAGUGGCUGUGGCUAGACUGCCUCUCUGGAUUCCUCGUCACUCAGCAGGGCAUCUCUGAGAGAAAUGCC [U29C G32A]")
"TRUE"
>>> label_value("UACGUAGGUGGUUUUCCCCUGAUAGUGCUAAGGGGGCCUGGAAGUUUGGACUGGGCAGAGCUCAACACAGCGUGGCAAAGUGGCUGUGGCUUGACUGCCUCUCUGGAUUCCUCGCCACUCAGCAGGGCAUCUCUGAGAGAAAUGCC [A92U U115C]")
"FALSE"

Query :: Has UACGUAGGUGGUUUUCCCCUGAAAGUGCUAAGGGGGCCUGGAAGUUUGGACUGGGCAGAGCUCAACACAGCGUGGCAAAGUGGCUGUGGCUGGACUGCCUCUCUGGAUUCCUCGUCACUCAGCAGGGCAUCUCUGAGAGAAAUGCC [U23A A92G] a recorded self-cleavage greater than or equal to 0.8?
Result :: FALSE

Query :: Subsequent entry: UACGUAGGUGGUUUUCCCCUGAUAGUGCUAAGGGGGCCUGGAAGUUUGGACUGGGCAGAGCUCAACACAGUGUGGCAAAGUGGCUGUGGCUAGACUGCGUCUCUGGAUUCCUCGUCACUCAGCAGGGCAUCUCUGAGAGAAAUGCC [C71U C99G]
Result :: FALSE

Query :: Subsequent entry: UACGUAGGUGGUUUUCCGCUGAUAGUGCUAAGGGGGCCUGGAAGUUUGGACUGGGCAGAGCUCAACACAGCGUGGCAAAGUGGCUGUGGCUAGACUGCCUCUCUGGAUUCCUCGUCACUCAGCGGGGCAUCUCUGAGAGAAAUGCC [C18G A124G]
Result :: TRUE

Query :: Subsequent entry: UACGUAGGUGGUUUUCCCCUGAUAGUGCUAAGGGGGCCUGGAAGUUUGGACUGGGCAGAGCUCAACACAGCGUGGCAAAGUGGCUGUGGUUAGUCUGCCUCUCUGGAUUCCUCGUCACUCAGCAGGGCAUCUCUGAGAGAAAUGCC [C90U A94U]
Result :: FALSE

Query :: Subsequent entry: UACGUAGGUUGUUUUCCCCUGAUAGUGCUAAGGGGGCCUGGAAGUUUGGACUGGGCAGAGUUCAACACAGCGUGGCAAAGUGGCUGUGGCUAGACUGCCUCUCUGGAUUCCUCGUCACUCAGCAGGGCAUCUCUGAGAGAAAUGCC [G10U C61U]
Result :: FALSE

Query :: Subsequent entry: UACGUAGGUGGUUUUCCCCUGACAGUGCUAAGGGGGCCUGGAAGUUUGGACUGGGCAGAGCUCAACACAGCGUGGCAAAGUGGCUGUGGCUAGACUGCCUCUCUGGAUUCCUCGUCACUCAGCAGGGCAUUUCUGAGAGAAAUGCC [U23C C131U]
Result :: TRUE

Query :: Subsequent entry: UACGUAGGUGGUUUUCCCCUGAUAGUGCUAAGGGGGCCUGGAAGUUUGGACUGGGCAGAGCUCAACACAGUGUGGCAAAGUGGCUGUGGCUGGACUGCCUCUCUGGAUUCCUCGUCACUCAGCAGGGCAUCUCUGAGAGAAAUGCC [C71U A92G]
Result :: FALSE
